Assay: qHTS for Inhibitors of human tyrosyl-DNA phosphodiesterase 1 (TDP1): qHTS in cells in presence of CPT; further: nearly all actives have a fitted effect of over 55% in size
Settings: chicken DT40 Tdp1-/-;hTDP1 cells + 20 nM CPT, ATP luminescence, 48 h; series mostly up to 46.2 µM
Hit rate of the full screen: of about 420,000 compounds, about 50,000 (12%) were called active. Not shown: some 26% with an inconclusive outcome. The call rests on the fitted dose curve; in most records, active means well fitted inhibition curve with a large enough effect; inconclusive means small, poorly fitted or top-dose-only effect; inactive means flat fitted curve, though single readings scatter. Only a selection was taken, and actives are over-represented in it overall.
Pick one: active, inactive

Consider the following illustrative entries.
## Input Just curious, what result did COc1ccc(Cc2nnc(SCC(=O)Nc3ccc(C)c(C)c3)o2)cc1OC get here?
## Output inactive

## Input Just curious, what result did CN1CCN(C(=O)c2ccc(-c3cc4nc(NCc5cccnc5)n(C)c(=O)c4s3)cc2)CC1 get here?
## Output inactive

## Input Just curious, what result did Oc1c(C(c2ccccn2)N2CCOCC2)ccc2cccnc12 (stereo not given) get here?
## Output active

## Input Just curious, what result did CC1(C)c2[nH]c3ccccc3c2C[C@H]2C(=O)N(N)CC(=O)N21 get here?
## Output inactive

Please find the next compound below.
## Input Just curious, what result did CCOc1ccc(C(=O)Nc2ccc(S(=O)(=O)Nc3cc(C)on3)cc2)cc1 get here?
## Output inactive

====

Experiment: qHTS for Inhibitors of human tyrosyl-DNA phosphodiesterase 1 (TDP1): qHTS in cells in presence of CPT; further: nearly all actives have a fitted effect of over 55% in size
Settings: chicken DT40 Tdp1-/-;hTDP1 cells + 20 nM CPT, ATP luminescence, 48 h; series mostly up to 46.2 µM
The campaign covered roughly 420,000 compounds. About 50,000 (12%) were called active. About 26% were inconclusive and are not listed. Calls come from the whole dose curve; as a rule, active = well fitted inhibition curve with a large enough effect; inconclusive = small, poorly fitted or top-dose-only effect; inactive = flat fitted curve, though single readings scatter. The list comes from a sample in which actives are over-represented; it also holds close analogues and randomly drawn compounds.
Pick one: active, inactive

Consider the following illustrative entries.
## Input Just curious, what result did O=C(CNC(=O)c1ccc(F)cc1)c1ccccc1 get here?
## Output inactive

## Input Just curious, what result did COc1ccc(-c2nc3c(s2)CCc2onc(-c4ccc(OC)cc4)c2-3)cc1 get here?
## Output active

## Input Just curious, what result did O=C(COc1ccc(/C=N/NS(=O)(=O)c2ccccc2)cc1)NCCc1ccccc1 get here?
## Output inactive

## Input Just curious, what result did CCc1nnc(NS(=O)(=O)c2ccc(N=Cc3c(C)[nH]n(-c4ccc(C)cc4)c3=O)cc2)s1 get here?
## Output active

## Input Just curious, what result did COc1ccc(-c2onc3ccc(C(C)=O)cc23)cc1 get here?
## Output inactive

## Input Just curious, what result did Cc1ccc2nc(COc3cccc(NC(=O)Nc4ccc(C)c(Cl)c4)c3)cc(=O)n2c1 get here?
## Output inactive

Others:
## Input Just curious, what result did Cc1ccc(NC(=O)CN(C)C(=O)COC(=O)c2nccnc2N)cc1 get here?
## Output inactive

## Input Just curious, what result did CN(C)c1ccc(C(CNC(=O)c2ccc(F)cc2)c2c[nH]c3ccccc23)cc1 (stereo not given) get here?
## Output active

## Input Just curious, what result did CC(C)CC(O)C1CCN(C(=O)CCc2nnc(-c3ccc4c(c3)OCO4)o2)CC1 (stereo not given) get here?
## Output inactive

## Input Just curious, what result did O=C(Cn1c(=O)n(Cc2ccco2)c(=O)c2ccccc21)NCC1CCCO1 (stereo not given) get here?
## Output inactive

====

Assay: qHTS for Inhibitors of human tyrosyl-DNA phosphodiesterase 1 (TDP1): qHTS in cells in presence of CPT; further: nearly all actives have a fitted effect of over 55% in size
Conditions: chicken DT40 Tdp1-/-;hTDP1 cells + 20 nM CPT, ATP luminescence, 48 h; series mostly up to 46.2 µM
Hit rate of the full screen: of about 420,000 compounds, about 50,000 (12%) were called active. Inconclusive results (about 26%) are left out. The call rests on the fitted dose curve; in most records, active means well fitted inhibition curve with a large enough effect; inconclusive means small, poorly fitted or top-dose-only effect; inactive means flat fitted curve, though single readings scatter. The sample as a whole holds a higher share of actives than the screen did.
Pick one: active, inactive

## Input Just curious, what result did CCOc1ccc(N(CC(=O)Nc2cccc(OC)c2)S(C)(=O)=O)cc1 get here?
## Output inactive

## Input Just curious, what result did Cc1ccc(C(=O)NCC(=O)OCC(=O)NC2CCCCCCC2)cc1 get here?
## Output inactive

## Input Just curious, what result did COc1ccc(CN2CCCC(C(=O)N3CCCCC3)C2)cc1 (stereo unspecified) get here?
## Output inactive

## Input Just curious, what result did O=C(CN1CCN(S(=O)(=O)c2ccc(Cl)s2)CC1)N1CCCCC1 get here?
## Output inactive

## Input Just curious, what result did NC(=O)c1ccsc1NC(=O)COC(=O)COc1ccc(C=O)cc1 get here?
## Output inactive

## Input Just curious, what result did COc1cc(CN2CCCC(C(=O)c3ccc(SC)cc3)C2)cc(Cl)c1O (stereo unspecified) get here?
## Output active

## Input Just curious, what result did O=C(c1cc2ccccc2o1)N1CCN(c2cccc(C(F)(F)F)c2)CC1 get here?
## Output inactive

## Input Just curious, what result did CCOc1cccc(NC(=O)c2ccc(F)c(S(=O)(=O)N(CC)c3cccc(C)c3)c2)c1 get here?
## Output active

## Input Just curious, what result did CC(C)C(=O)Nc1c2c(nn1-c1ccccc1)CSC2 get here?
## Output inactive

## Input Just curious, what result did CN(Cc1cc2cc(F)ccc2[nH]1)Cc1nc(-c2cnccn2)no1 get here?
## Output inactive

## Input Just curious, what result did CCOc1cccc(NC(=O)CC#N)c1 get here?
## Output inactive

Data origin, for the record: PubChem BioAssay AID686979
